Source of measurements: the supplement of paper PMC10567573

B1: TRIM63 (parent)
chain: FRCPTCRHEVIMDRHGVYGLQRNL

Variants of: B1
Test: protein stability index of a GFP-peptide fusion (GPS, HEK-293T) (PSI 1-6); higher = more stable;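 note: lentivirally expressed fusions sorted by FACS into six bins by GFP to DsRed ratio, PSI derived from sequencing read proportions per bin multiplied by bin number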
Conditions: c terminus: a fixed tail appended
Kindly return yes (1) if reported protein stability index is no lower than 3; return no (0) if it is lower.

CHAIN | CLASS ASSIGNMENT
FRCPTCRHEVIADRHGVYGLQRNL [M12A] | no (0)
FRCPTCRHEVCMDRHGVYGLQRNL [I11C] | no (0)
FTCPTCRHEVIMDRHGVYGLQRNL [R2T] | no (0)
FRCPTQRHEVIMDRHGVYGLQRNL [C6Q] | no (0)
FRCPTCRHEVIMDRQGVYGLQRNL [H15Q] | yes (1)

Determine whether this variant has protein stability index no lower than 3: FWCPTCRHEVIMDRHGVYGLQRNL [R2W]
no (0)
